Recorded measurements of Mean % WT Binding, one per entry
- MEASURED_TARGET: human CD33 P46F (human, UniProt P20138 18-364)
- Sequence (P20138 18-364 P46F limits assumed): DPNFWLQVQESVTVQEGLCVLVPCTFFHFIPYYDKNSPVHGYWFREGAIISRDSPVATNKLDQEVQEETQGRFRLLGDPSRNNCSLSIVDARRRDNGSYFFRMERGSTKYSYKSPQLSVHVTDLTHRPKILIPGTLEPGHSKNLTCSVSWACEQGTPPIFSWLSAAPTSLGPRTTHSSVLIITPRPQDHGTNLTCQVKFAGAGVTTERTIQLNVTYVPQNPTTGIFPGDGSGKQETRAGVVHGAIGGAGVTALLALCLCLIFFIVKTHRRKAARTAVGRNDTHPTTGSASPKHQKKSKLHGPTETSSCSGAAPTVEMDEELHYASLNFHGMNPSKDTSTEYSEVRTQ
- ASSAY_PROTOCOL: flow cytometry, mutant on cells, IgG

BINDER	Mean % WT Binding, % WT binding
Refmab #1 (antibody, human IgG1, V domains shown, Tested in IgG format; human IgG1 (Absolute Antibody hP67.6, Cat. No. Ab00283-10.0); also called hP67.6) VH: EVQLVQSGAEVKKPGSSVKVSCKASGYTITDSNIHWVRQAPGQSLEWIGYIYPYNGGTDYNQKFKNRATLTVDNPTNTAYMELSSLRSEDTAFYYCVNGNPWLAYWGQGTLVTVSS VL: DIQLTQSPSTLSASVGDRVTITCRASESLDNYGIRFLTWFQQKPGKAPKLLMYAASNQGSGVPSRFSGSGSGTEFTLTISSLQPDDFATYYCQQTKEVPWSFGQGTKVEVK	1
Refmab #2 (antibody, human IgG1, V domains shown, Tested in IgG format; human IgG1 Fc silent (PG-LALA)) VH: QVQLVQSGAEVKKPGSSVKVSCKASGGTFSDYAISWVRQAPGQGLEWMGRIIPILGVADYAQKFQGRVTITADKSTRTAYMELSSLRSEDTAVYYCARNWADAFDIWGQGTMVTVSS VL: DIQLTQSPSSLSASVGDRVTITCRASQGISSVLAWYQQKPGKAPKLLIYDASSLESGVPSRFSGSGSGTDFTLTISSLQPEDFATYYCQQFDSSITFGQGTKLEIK	80.9
Refmab #4 (antibody, human IgG1, V domains shown, Tested in IgG format; human IgG1 Fc silent (PG-LALA)) VH: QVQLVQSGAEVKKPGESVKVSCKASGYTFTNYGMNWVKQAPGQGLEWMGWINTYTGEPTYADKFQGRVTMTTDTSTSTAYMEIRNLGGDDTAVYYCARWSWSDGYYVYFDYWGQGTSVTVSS VL: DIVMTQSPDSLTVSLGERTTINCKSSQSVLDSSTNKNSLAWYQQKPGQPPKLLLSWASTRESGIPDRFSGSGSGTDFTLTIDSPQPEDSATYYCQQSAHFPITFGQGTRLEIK	42.4
Refmab #3 (antibody, human IgG1, V domains shown, Tested in IgG format; human IgG1 Fc silent (PG-LALA)) VH: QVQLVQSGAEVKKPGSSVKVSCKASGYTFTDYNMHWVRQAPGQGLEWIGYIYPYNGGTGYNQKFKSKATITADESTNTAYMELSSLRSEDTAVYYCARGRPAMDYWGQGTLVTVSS VL: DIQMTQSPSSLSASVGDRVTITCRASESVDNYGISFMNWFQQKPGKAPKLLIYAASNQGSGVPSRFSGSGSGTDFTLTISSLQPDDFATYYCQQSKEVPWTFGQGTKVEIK	0.2
